test-summary: Intrinsic clearance in human pooled liver microsomes at 1 uM incubated up to 120 mins in presence of NADPH by LC-MS analysis
Assay type: ADME, Microsome
protocol-conditions: read-out: CLH
Known CLint scaled at 1 µM of a selection of compounds
observed-property: CLint scaled at 1 µM (mL/min/kg)

>>> result("COc1cccc(OC)c1-c1cc(C(=O)N[C@@H](CCN2CCCCC2)Cc2nnc[nH]2)nn1C1CCCC1")
37.8
>>> result("COc1cccc(OC)c1-c1cc(C(=O)N[C@@H](CCN2CCCCC2)CC(=O)NC2CC(F)(F)C2)nn1C1CCCC1")
32.4
>>> result("COc1cccc(OC)c1-c1cc(C(=O)N[C@@H](CCN2CCCCC2)CC(=O)N(C)c2nccs2)nn1C1CCCC1")
33.4
>>> result("COc1cccc(OC)c1-c1cc(C(=O)N[C@@H](CCN2CCCCC2)CC(=O)N(C)C2CCC2)nn1C1CCCC1")
33.3
>>> result("COc1cccc(OC)c1-c1cc(C(=O)N[C@@H](CCN2CCCCC2)CC(=O)Nc2nccs2)nn1C1CCCC1")
46.7
>>> result("COc1cccc(OC)c1-c1cc(C(=O)N[C@@H](CCN2C(C)CCCC2C)CC(=O)NC2CCC2)nn1C1CCCC1.Cl (stereo not given in full)")
23.9
>>> result("COc1cccc(OC)c1-c1cc(C(=O)N[C@@H](CCN2CCCCC2)CC(=O)NC2CCC2)nn1C1CCCC1.Cl")
20
>>> result("COc1cccc(OC)c1-c1cc(C(=O)N[C@@H](CCN2CCCCC2)CC(=O)Nc2nnn[nH]2)nn1C1CCCC1")
25.8
>>> result("COc1cccc(OC)c1-c1cc(C(=O)N[C@@H](CCN2CCCCCC2)CC(=O)NC2CCC2)nn1C1CCCC1.Cl")
32.4
>>> result("COc1cccc(OC)c1-c1cc(C(=O)N[C@@H](CCN2CCOCC2)CC(=O)NC2CCC2)nn1C1CCCC1.Cl")
73.1
